FYI, the data here is from ChEMBL document CHEMBL1201862.

- System: Malme-3M
- assayProcedure: NCI tumour cell line growth inhibition, 48 h
Activity calls are given as the source filed them. No stated cut-off is given here; in the data, active = GI50 up to about 1.1 µM and inactive = higher.
Mark one answer only. Choices: Y (active), N (inactive)

Use the examples below as a reference point.
Please indicate how the test categorized COc1ccccc1C12OC(=O)C1(C)Oc1ccccc1C2=O (stereo not drawn) .
N

# lookup: test call for COc1ccc(/C=C2\SC(c3ccc(OC)cc3)N(NC(=O)Cc3ccccc3)C2=O)cc1 (stereo not drawn)
N

State the result this test recorded for CC(=O)OCC1OC(OC2CC3C(C)(C)C(OC(C)=O)CC[C@]3(C)C3CCC45CC4(CC[C@H]5C(C)CC(O)[C@@H](O)C(C)(C)O)[C@]23C)C(O)C(O)C1O (stereo partly drawn) .
N

What is the recorded call for this molecule in the test? COc1cc(CC2CCc3nc(N)nc(N)c3C2)cc(OC)c1OC (stereo not drawn)
Y

# lookup: test call for O=C(Cc1ccc([N+](=O)[O-])cc1)OCC#CCOC(=O)Cc1ccc([N+](=O)[O-])cc1
N

Further cases:
Please let me know the test result on file for N#C/C(c1nc2ccccc2[nH]1)=c1\s/c(=C/c2ccc(Cl)cc2)c(=O)n1-c1ccccc1 .
N

Status in this test for O=C(c1ccccc1)c1cc[n+](C2=C([N-]S(=O)(=O)c3ccccc3)C(=O)c3ccccc3C2=O)cc1 ?
N

Look up the recorded call for CCCCCCCCCCNC(=O)CCC(NC(=O)c1ccc(N(C)Cc2cnc3nc(N)nc(N)c3n2)cc1)C(=O)NCCCCCCCCCC (stereo not drawn) in this test.
N
